Tested on: SF-539 CNS
test-details: NCI tumour cell line growth inhibition, 48 h
property-measured: TGI

Known results for molecules:
INSERT INTO assay_data (molecule, recorded_measurement) VALUES
  ('CCC(=O)O[C@H]1CC[C@H]2[C@@H]3CCC4=C/C(=N/NC(=O)c5cccc6c(=O)c7ccccc7[nH]c56)CC[C@]4(C)[C@H]3CC[C@]12C', '> 25 µM'),
  ('CC(=O)[O-].CC(=O)[O-].[NH2-].[Pt+2].c1ccc2cnccc2c1', '43.8 µM'),
  ('Cc1cccc(NC(=S)Nc2ccccc2Cl)n1', '> 100 µM');

Field: TGI. Fill in for each record below.
1. CCO/N=[N+](\[O-])N(CC)CC
2. CNC(=S)N/N=C/c1cccc(C)n1
3. CN(C)CCCN1CCc2c([nH]c3ccccc23)C1c1cccnc1 (stereo unspecified)

result:
1. > 100 µM
2. 39.7 µM
3. > 100 µM

---

System: M19-MEL melanoma
test-details: NCI tumour cell line growth inhibition, 48 h
Consider the following compounds; for each one, report its TGI.

INSERT INTO assay_data (compound, property_measured, recorded_measurement) VALUES
  ('COc1cc[n+](C)cc1', 'TGI', '> 100 µM'),
  ('N#CC(C(=O)C(=O)NCCCNC(=O)C(=O)C(C#N)c1ccccc1)c1ccccc1 (stereo unspecified)', 'TGI', '> 100 µM'),
  ('O=C(CN1CCN(c2ccccc2)CC1)N1CCc2c([nH]c3ccccc23)C1c1cccnc1 (stereo unspecified)', 'TGI', '> 100 µM'),
  ('COC(=O)C1C2C=CC(C2)N1[C@@H](C)c1ccccc1 (stereo partly specified)', 'TGI', '> 100 µM'),
  ('CC/C=C\C/C=C\C/C=C\CCCCCCCC(=O)OCC', 'TGI', '> 100 µM');

Parameter requested: TGI. Apply to each item below.
1. CC(C)C1CC(O)O[C@@H]([C@@H](C)[C@H]2CC(=O)[C@@H]3[C@@H]4[C@@H](O)[C@H](O)[C@H]5[C@@H](O)[C@H](O)CC[C@]5(C)[C@H]4CC[C@]23C)C1 (stereo partly specified)
2. COc1ccc2nc3cc(Cl)ccc3c(NCCCN(CCCl)CCCl)c2c1

result:
1: > 100 µM; 2: 0.846 µM

Please state, for each entry, its recorded TGI.
1. COc1cc([C@@H]2c3cc4c(cc3[C@@H](NC(=O)c3ccccc3)C3COC(=O)[C@@H]32)OCO4)cc(OC)c1O (stereo partly specified)
2. O=C(O)c1cc(=O)c2[nH]c3ccccc3c2s1
3. CCC(C)C(=O)c1c(O)c(C/C=C(\C)CCC=C(C)C)c(O)c2c(C(O)CC)cc(=O)oc12 (stereo unspecified)
4. CC(=O)n1c2ccccc2c2nc3nc(Oc4ccc(C)cc4)c4ccccc4c3cc21
5. Cc1cccc(C(C)C)c1NC(=O)C(=O)CC(=O)c1c(C)n([O-])c2ccccc2[n+]1=O

result:
1: 24.7 µM; 2: > 100 µM; 3: 6.51 µM; 4: > 100 µM; 5: 50.6 µM

List TGI for every entry below, keeping the order given.
1. O=c1cc(-c2ccccc2)c2cc3c(=O)ccoc3cc2o1
2. COc1cccc(C(=O)C2C(=O)N(C)CCc3ccccc32)c1OC (stereo unspecified)

result:
["> 100 µM", "> 100 µM"]

Go through the items and report each one's TGI.
1. CC(=O)c1cc([N+](=O)[O-])ccc1OCC(=O)O
2. OCCCCCCOc1ccc(-c2cc(-c3ccccn3)nc(-c3ccccn3)c2)cc1

result:
["> 100 µM", "1.25 µM"]
